Source: patent US10238642B2

# experimental target: SERT (Rattus norvegicus)
# Construct: Spinal cords were dissected for ex vivo transporter occupancy and PK assessments from the same animals
# Sequence (P31652 whole entry): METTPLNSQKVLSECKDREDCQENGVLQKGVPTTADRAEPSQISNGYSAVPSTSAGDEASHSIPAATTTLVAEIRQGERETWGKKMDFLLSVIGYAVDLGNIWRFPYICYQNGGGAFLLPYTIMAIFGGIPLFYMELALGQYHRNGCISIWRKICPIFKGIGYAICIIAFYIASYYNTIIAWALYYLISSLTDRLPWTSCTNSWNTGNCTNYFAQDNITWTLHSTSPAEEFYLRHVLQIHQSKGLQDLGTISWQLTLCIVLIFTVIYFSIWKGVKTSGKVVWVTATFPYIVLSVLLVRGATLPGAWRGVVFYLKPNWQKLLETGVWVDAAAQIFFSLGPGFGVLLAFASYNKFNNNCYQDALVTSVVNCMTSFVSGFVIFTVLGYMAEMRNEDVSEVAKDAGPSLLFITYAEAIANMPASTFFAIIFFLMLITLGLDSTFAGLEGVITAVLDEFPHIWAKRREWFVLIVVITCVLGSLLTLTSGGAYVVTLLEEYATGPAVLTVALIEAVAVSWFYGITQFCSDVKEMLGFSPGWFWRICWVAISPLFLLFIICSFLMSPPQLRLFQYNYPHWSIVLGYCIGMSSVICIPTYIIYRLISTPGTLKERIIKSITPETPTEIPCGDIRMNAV
# method summary: Ex vivo transporter occupancy in rat spinal cord (PK/PD model), SERT
# measurement setup: projected from rat, accounting for species differences in plasma protein binding
metric: EC50 (nM)
Numbers only; they are read as nM.

Would you mind telling me what EC50 value was observed for Fc1cc(F)c(OCc2ccccc2C2CCNCC2)c(F)c1 ?
74.4

====

# method summary: Plasma protein binding, rat
# Type: in vitro ADME
metric: fraction unbound
// keep it numeric: no unit symbol after the value

Would you mind telling me what fraction unbound value was observed for Fc1cc(F)c(OCc2ccccc2C2CCNCC2)c(F)c1 ?
0.098
